Tested on: WT K562 cells
protocol: Mini-screen: pooled synthetic intron mini-library in HSV-TK, GCV treatment, full-length intron sequencing from genomic DNA
Format: cell-based
assay conditions: genotype WT (SF3B1+/+) K562; GCV 100 ug/mL; day 6; vector hPGK-PuroR-P2A-HSV-TK
measured property: fold-change (estimated fold-change in intron abundance in gDNA)

Problem: Supply reported fold-change (estimated fold-change in intron abundance in gDNA) belonging to this molecule: intron_8499: 150 nt synthetic intron, 89/95/102/107 AtoG branchpoint ablation; SEQ ID NO 61/69 (nucleic acid) DNA 1: GTGAGTCGCCCCCTTCCTCTGCTCCGAGAGGGAAATGGGAATTAGGGTGGTGGCAGAGCCCAAAGAGGCCTTGTAGGCCATGGTAAGGCGTTTCTGTGTTTTGTTTTGCTTTGTCTTTATCCTAAAATGCCATTGGCAAGTTTATTGCAG DNA 2: GTGAGTCGCCCCCTTCCTCTGCTCCGAGAGGGAAATGGGAATTAGGGTGGTGGCAGAGCCCAAAGAGGCCTTGTAGGCCATGGTAAGGCGTTTCTGTGTTTTGTTTTGCTTTGTCTTTATCCTAAAATGCCATTGGCAAGTTTATTGCAG
Solution: 1.15
